molecular target: Smo2 sites (Mus musculus, UniProt P56726); construct: host or cells: C3H10T1/2; experiment: Inhibition of C3H10T1/2 differentiation (alkaline phosphatase activity) induced by compound 1 or compound 6; assay type: cell-based; conditions: ratio of mean IC50 values; Smo1 stimulated by SAG 0.1 μM, Smo2 by compound 1 1 μM
Sequence (P56726 33-793): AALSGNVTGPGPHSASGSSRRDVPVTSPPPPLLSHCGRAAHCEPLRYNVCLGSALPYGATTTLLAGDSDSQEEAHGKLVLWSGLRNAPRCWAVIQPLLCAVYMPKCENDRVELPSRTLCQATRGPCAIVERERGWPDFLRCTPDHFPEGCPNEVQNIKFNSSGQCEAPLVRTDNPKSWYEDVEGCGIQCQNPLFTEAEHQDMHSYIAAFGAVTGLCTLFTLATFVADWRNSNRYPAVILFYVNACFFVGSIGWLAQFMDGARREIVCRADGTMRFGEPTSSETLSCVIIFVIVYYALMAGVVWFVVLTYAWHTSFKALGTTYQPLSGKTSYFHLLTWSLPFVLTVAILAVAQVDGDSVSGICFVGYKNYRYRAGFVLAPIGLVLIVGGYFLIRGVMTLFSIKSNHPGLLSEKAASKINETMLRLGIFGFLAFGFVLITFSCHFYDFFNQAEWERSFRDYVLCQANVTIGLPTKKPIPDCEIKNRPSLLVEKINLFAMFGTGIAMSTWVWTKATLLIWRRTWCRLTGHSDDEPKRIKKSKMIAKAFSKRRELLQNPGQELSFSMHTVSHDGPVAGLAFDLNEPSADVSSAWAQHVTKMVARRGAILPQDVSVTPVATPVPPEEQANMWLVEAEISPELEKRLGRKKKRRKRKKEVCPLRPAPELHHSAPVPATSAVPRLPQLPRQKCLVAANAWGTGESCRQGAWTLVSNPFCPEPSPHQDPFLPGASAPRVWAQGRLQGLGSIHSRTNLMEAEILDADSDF
measurementType: C3H10T1/2 cell differentiation IC50 Smo1/IC50 Smo2

P = COc1cc(C(=O)NC(=O)Nc2cccc(NC(=O)c3ccccc3)c2)cc(OC)c1OC
Q = Cc1nn(-c2ccccc2)c(C)c1/C=N/N1CCN(Cc2ccccc2)CC1
Ask | Would you let me know which has the greater C3H10T1/2 cell differentiation IC50 Smo1/IC50 Smo2 value, P or Q ? Reply briefly: the label of your chosen item.
Reply | P

* * *

target: Smo2 sites (Mus musculus, UniProt P56726); construct: host or cells: C3H10T1/2; assay: Inhibition of C3H10T1/2 differentiation (alkaline phosphatase activity) induced by compound 1 or compound 6; type: cell-based; conditions: response induced by compound 6; read-out: affinity (IC50) for compound 6
measurementType: IC50 (µM)
Supply the numeric figure in µM, leaving out any unit text.

Ask | Quick one: IC50 for `COc1cc(C(=O)NC(=O)Nc2cccc(NC(=O)c3ccccc3)c2)cc(OC)c1OC` ?
Reply | 0.4

* * *

target: Smo2 sites (Mus musculus); construct: host or cells: C3H10T1/2; assay: Inhibition of C3H10T1/2 differentiation (alkaline phosphatase activity) induced by compound 1 or compound 6; assay type: cell-based; conditions: alkaline phosphatase activity induced by compound 6 (3 μM); mean ± SEM of 2 to 6 experiments; read-out: IC50 μM, C3H10T1/2, Compound 6
measurementType: IC50 (µM)

I = COc1cccc(CN(C(=O)CC(C)(C)C)[C@H]2C[C@@H](C(=O)N3CCNCC3)N(Cc3ccc4c(c3)OCO4)C2)c1
II = COc1cc(C(=O)NC(=S)Nc2ccc(C)c(NC(=O)c3ccc(-c4ccccc4)cc3)c2)cc(OC)c1OC
Ask | Would you let me know which has the greater IC50 value, I or II ? Reply briefly: the label of your chosen item.
Reply | I

* * *

molecular target: Smo2 sites (Mus musculus); construct: host or cells: C3H10T1/2; assay: Inhibition of C3H10T1/2 differentiation (alkaline phosphatase activity) induced by compound 1 or compound 6; type: cell-based; settings: alkaline phosphatase activity induced by compound 1 (1 μM); mean ± SEM of 2 to 6 experiments; read-out: IC50 μM, C3H10T1/2, Compound 1
measurementType: IC50 (µM)

A = COc1cc(C(=O)NC(=S)Nc2ccc(C)c(NC(=O)c3ccc(-c4ccccc4)cc3)c2)cc(OC)c1OC [MRT-81]
B = COc1cccc(CN(C(=O)CC(C)(C)C)[C@H]2C[C@@H](C(=O)N3CCNCC3)N(Cc3ccc4c(c3)OCO4)C2)c1 [Cur61414]
Ask | Would you let me know which has the greater IC50 value, A or B ? Reply briefly: the label of your chosen item.
Reply | B

* * *

biological target: Smo2 sites (Mus musculus, UniProt P56726); construct: host or cells: C3H10T1/2; experiment: Inhibition of C3H10T1/2 differentiation (alkaline phosphatase activity) induced by compound 1 or compound 6; format: cell-based; conditions: Smo1 stimulated by SAG, Smo2 stimulated by compound 1
measurementType: selectivity between Smo1 and Smo2 sites (in words)

Cc1nn(-c2ccccc2)c(C)c1/C=N/N1CCN(Cc2ccccc2)CC1 :: comparable affinities
COc1cc(C(=O)NC(=O)Nc2cccc(NC(=O)c3ccccc3)c2)cc(OC)c1OC :: comparable affinities
